All values here come from patent US5225425A.

EXPERIMENTAL TARGET: PAF receptor (Oryctolagus cuniculus, UniProt G1TEI7)
Construct: centrifuged at 800 rpm for 10-15 minutes at room temperature to recover the platelet rich plasma (PRP); from tissue; host or cells: platelets in platelet rich plasma from blood of male New Zealand White rabbits
Sequence (G1TEI7 1-342): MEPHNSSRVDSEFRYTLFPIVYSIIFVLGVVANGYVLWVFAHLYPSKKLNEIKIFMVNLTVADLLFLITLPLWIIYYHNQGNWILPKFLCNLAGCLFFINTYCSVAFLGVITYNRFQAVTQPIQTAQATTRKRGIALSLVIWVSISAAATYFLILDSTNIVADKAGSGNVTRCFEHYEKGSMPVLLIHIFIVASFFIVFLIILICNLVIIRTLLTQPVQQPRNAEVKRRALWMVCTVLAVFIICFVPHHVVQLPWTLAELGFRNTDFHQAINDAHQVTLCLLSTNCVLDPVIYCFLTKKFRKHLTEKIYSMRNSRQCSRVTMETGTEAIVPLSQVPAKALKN
ASSAY OVERVIEW: Inhibition of PAF induced platelet aggregation in rabbit platelet rich plasma
Assay type: cell-based, rabbit (New Zealand White)
MEASUREMENT CONDITIONS: PAF challenge .0000001 M
pIC50: −log10 of the molar value.
Recorded pIC50 values for a group of molecules are listed next.
REPORTED PROPERTY: pIC50

item_smiles=CCCCCCCCCCCCCCOc1ccc(NC(=O)Nc2cccc(C[n+]3csc(C)c3)c2)cc1 endpoint_value=4.77
item_smiles=CCCCCCCCCCCCCCOc1ccc(CN(C(=O)NC)c2cccc(C[n+]3csc(C)c3)c2)cc1.[Br-] endpoint_value=5.96

----------
EXPERIMENTAL TARGET: PAF receptor (Oryctolagus cuniculus, UniProt G1TEI7)
Construct: centrifuged at 800 rpm for 10-15 minutes at room temperature to recover the platelet rich plasma (PRP); from tissue; host or cells: platelets in platelet rich plasma from blood of male New Zealand White rabbits
ASSAY OVERVIEW: Inhibition of PAF induced platelet aggregation in rabbit platelet rich plasma
Format: cell-based, rabbit (New Zealand White)
MEASUREMENT CONDITIONS: PAF challenge 5.0000E-08 M
pIC50: −log10 of the molar value. Structures can show the parent of a compound that is named as a salt.
REPORTED PROPERTY: pIC50

compound=CCCCCCCCCCCCCCOc1ccc(NC(=O)c2cccc(C[n+]3csc(C)c3)c2)cc1 reported_property=pIC50 endpoint_value=5.57
compound="CCCCCCCCCCCCCCOc1ccc(CC(=O)Nc2cccc(-n3ccnc3C)c2)cc1 [monohydrochloride]" reported_property=pIC50 endpoint_value=4.73
compound=CCCCCCCCCCCCCCOc1ccc(CN(C(C)=O)c2cccc(C[n+]3ccc(C)c(C)c3)c2)cc1 reported_property=pIC50 endpoint_value=4.92
compound=CCCCCCCCCCCCCCOc1ccc(CN(C(=O)NC)c2cccc(C[n+]3csc(C)c3)c2)cc1.[Br-] reported_property=pIC50 endpoint_value=6.34
compound=CCCCCCCCCCCCCCCCOc1ccc(OCC(=O)Nc2cccc(C[n+]3csc(C)c3)c2)cc1 reported_property=pIC50 endpoint_value=5.30
compound=CCCCCCCCCCCCCCOc1ccc(CN(C(C)=O)c2ccc(C[n+]3csc(C)c3)cc2)cc1 reported_property=pIC50 endpoint_value=5.68
compound=CCCCCCCCCCCCCCOc1ccc(CC(=O)Nc2ccc(-n3cc[n+](C)c3C)cc2)cc1 reported_property=pIC50 endpoint_value=5.35
compound=CCCCCCCCCCCCCCOc1ccc(NC(=O)Nc2cccc(C[n+]3csc(C)c3)c2)cc1 reported_property=pIC50 endpoint_value=5.82
compound=CCCCCCCCCCCCCCOc1ccc(CC(=O)Nc2cccc(C[n+]3ccn4ccccc43)c2)cc1 reported_property=pIC50 endpoint_value=5.82
compound=CCCCCCCCCCCCCCOc1ccc(C(=O)Nc2cccc(C[n+]3csc(C)c3)c2)cc1 reported_property=pIC50 endpoint_value=5.22
compound=CCCCCCCCCCCCCCOc1ccc(CC(=O)Nc2cccc(-c3scc[n+]3C)c2)cc1 reported_property=pIC50 endpoint_value=4.92
compound=CCCCCCCCCCCCCCOc1ccc(CC(=O)Nc2cccc(-n3cc[n+](C)c3C)c2)cc1 reported_property=pIC50 endpoint_value=5.61

----------
EXPERIMENTAL TARGET: PAF receptor (Oryctolagus cuniculus, UniProt G1TEI7)
Construct: centrifuged at 800 rpm for 10-15 minutes at room temperature to recover the platelet rich plasma (PRP); from tissue; host or cells: platelets in platelet rich plasma from blood of male New Zealand White rabbits
ASSAY OVERVIEW: Inhibition of PAF induced platelet aggregation in rabbit platelet rich plasma
Format: cell-based, rabbit (New Zealand White)
MEASUREMENT CONDITIONS: PAF challenge 8.0000E-09 M
REPORTED PROPERTY: IC50 (nM)

item_smiles=CCCCCCCCCCCCCCOc1ccc(CCN(C(C)=O)c2cccc(C[n+]3csc(C)c3)c2)cc1 experimental_target="PAF receptor (Oryctolagus cuniculus, UniProt G1TEI7)" reported_property=IC50 units_of_measure=nM endpoint_value=2910
